- measured.on: clade 2.1 HPAI H5N1 isolates from Indonesia (neuraminidase) (Influenza A virus, UniProt F5HQR3)
- Assay type: biochemical, HPAI H5N1 avian influenza virus
- condition.set: read-out: IC50s of extreme outliers
pIC50: −log10 of the molar value.
measured.parameter: pIC50

stdin: Query (molecule): CCOC(=O)C1=C[C@@H](OC(CC)CC)[C@H](NC(C)=O)[C@@H](N)C1 [Oseltamivir, oseltamivir] ; field requested: pIC50
stdout: 6.46 to 7.20

* * *

- measured.on: A/chicken/Cambodia/CMB07.71LC1/2007 neuraminidase (Influenza A virus)
measured.parameter: IC50 (nM)
Use nM as the unit, but write only the number.

stdin: Query (compound): CCOC(=O)C1=C[C@@H](OC(CC)CC)[C@H](NC(C)=O)[C@@H](N)C1 [Oseltamivir, oseltamivir] ; field requested: IC50
stdout: 0.77
